# Papp at 30 min, 10 µM annotations
- experimentalDetails: In vitro blood-brain barrier permeability assay (BBB kit RBT-24H)
- Assay type: in vitro ADME, rat
- studyConditions: rat, 10 μM on luminal side, read-out: apparent permeability (Papp)

compound | Papp at 30 min, 10 µM
Cc1cc(OCC(=O)O)cc(C)c1Cc1ccc(O)c(C(C)C)c1 [GC-1] | 14.6 ×10⁻⁶ cm/s
Cn1c(=O)c2c(ncn2C)n(C)c1=O [Caffeine] | 76.4 ×10⁻⁶ cm/s

// next entry
stdin: Name the recorded Papp at 30 min, 10 µM for O=C(O)Cc1cc(C(F)(F)F)c(Cc2ccc(O)c3ccccc23)c(C(F)(F)F)c1 [ZTA-261] .
stdout: 7.28 ×10⁻⁶ cm/s

From: paper PMC11303563
